- Measured on: Metabotropic glutamate receptor 5 (Homo sapiens, UniProt P41594)
- Assay explanation: Antagonist activity at mGlu5 receptor (unknown origin) expressed in HEK cells assessed as inhibition of glutamate-induced calcium flux by fluorescence based assay
- Sequence (P41594 whole entry): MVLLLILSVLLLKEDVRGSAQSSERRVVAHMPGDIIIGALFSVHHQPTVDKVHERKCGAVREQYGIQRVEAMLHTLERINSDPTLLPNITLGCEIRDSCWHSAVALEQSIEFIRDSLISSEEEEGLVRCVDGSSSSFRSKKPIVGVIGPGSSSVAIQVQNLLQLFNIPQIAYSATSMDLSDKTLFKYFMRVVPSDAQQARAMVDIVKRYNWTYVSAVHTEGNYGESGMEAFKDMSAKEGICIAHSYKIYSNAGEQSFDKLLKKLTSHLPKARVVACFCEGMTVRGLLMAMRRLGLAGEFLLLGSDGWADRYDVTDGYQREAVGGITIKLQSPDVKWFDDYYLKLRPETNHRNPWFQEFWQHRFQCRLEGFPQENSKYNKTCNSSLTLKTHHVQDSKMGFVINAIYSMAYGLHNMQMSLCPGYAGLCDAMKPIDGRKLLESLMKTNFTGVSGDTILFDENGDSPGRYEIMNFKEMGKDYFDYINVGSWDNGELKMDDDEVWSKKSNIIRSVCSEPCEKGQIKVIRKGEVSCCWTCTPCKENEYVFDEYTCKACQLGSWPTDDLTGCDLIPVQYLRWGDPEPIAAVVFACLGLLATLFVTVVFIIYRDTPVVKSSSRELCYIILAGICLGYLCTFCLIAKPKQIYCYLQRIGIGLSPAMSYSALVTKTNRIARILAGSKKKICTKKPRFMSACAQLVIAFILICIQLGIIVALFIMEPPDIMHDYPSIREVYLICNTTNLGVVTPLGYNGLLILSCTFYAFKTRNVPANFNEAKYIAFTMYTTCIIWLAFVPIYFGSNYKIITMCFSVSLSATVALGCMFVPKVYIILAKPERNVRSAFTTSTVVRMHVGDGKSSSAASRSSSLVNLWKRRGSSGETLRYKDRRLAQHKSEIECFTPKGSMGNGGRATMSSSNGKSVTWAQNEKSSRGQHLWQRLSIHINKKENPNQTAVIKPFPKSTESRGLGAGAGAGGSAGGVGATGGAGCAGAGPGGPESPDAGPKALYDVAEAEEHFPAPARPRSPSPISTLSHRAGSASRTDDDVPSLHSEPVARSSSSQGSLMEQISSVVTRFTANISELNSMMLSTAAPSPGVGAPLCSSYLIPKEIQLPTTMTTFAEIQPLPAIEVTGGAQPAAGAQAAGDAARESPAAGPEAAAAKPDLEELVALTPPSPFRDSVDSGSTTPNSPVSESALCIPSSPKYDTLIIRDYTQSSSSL
Parameter IC50: see the listing below.
Write it as a number; the unit nM goes unstated.

Smiles str: Cc1cccc(NC(=O)c2nc(Br)cs2)n1
Experimental value: 159

Now, please, on to the next compound.
-- ask Hi! What's the reported IC50 for O=C(Nc1cccc(Br)c1)c1nc(Br)cs1 on Metabotropic glutamate receptor 5 (Homo sapiens, UniProt P41594)?
-- reply 274

###

- Measured on: CYP1A2 (Homo sapiens, UniProt P05177)
- Sequence (P05177 whole entry): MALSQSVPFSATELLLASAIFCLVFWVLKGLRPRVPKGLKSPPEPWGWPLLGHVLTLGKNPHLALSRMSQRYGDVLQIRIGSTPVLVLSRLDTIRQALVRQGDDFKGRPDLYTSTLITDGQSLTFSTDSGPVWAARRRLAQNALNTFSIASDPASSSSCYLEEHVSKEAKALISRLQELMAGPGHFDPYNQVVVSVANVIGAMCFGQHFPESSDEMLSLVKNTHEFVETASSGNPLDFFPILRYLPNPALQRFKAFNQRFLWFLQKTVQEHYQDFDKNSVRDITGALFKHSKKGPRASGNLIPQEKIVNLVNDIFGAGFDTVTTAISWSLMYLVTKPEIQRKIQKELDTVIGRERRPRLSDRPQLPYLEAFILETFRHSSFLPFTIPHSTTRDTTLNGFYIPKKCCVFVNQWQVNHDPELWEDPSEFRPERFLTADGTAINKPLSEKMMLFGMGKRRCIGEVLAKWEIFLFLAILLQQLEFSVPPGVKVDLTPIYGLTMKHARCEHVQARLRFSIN
- Assay explanation: Inhibition of human CYP1A2 assessed as remaining activity at 10 uM
- Assay type: ADME
- Condition label: read-out: Activity
Observation type: activity at 10 µM
Numeric answer plus unit only.

Smiles str: O=C(Nc1cccc(Br)c1)c1nc(Br)cs1
Experimental value: 38.3%

-- ask Entry Cc1cccc(NC(=O)c2nc(Br)cs2)n1 : reported activity at 10 µM = ?
-- reply 11%

###

- Measured on: hERG (KCNH2) (Homo sapiens)
- Sequence (Q12809 whole entry): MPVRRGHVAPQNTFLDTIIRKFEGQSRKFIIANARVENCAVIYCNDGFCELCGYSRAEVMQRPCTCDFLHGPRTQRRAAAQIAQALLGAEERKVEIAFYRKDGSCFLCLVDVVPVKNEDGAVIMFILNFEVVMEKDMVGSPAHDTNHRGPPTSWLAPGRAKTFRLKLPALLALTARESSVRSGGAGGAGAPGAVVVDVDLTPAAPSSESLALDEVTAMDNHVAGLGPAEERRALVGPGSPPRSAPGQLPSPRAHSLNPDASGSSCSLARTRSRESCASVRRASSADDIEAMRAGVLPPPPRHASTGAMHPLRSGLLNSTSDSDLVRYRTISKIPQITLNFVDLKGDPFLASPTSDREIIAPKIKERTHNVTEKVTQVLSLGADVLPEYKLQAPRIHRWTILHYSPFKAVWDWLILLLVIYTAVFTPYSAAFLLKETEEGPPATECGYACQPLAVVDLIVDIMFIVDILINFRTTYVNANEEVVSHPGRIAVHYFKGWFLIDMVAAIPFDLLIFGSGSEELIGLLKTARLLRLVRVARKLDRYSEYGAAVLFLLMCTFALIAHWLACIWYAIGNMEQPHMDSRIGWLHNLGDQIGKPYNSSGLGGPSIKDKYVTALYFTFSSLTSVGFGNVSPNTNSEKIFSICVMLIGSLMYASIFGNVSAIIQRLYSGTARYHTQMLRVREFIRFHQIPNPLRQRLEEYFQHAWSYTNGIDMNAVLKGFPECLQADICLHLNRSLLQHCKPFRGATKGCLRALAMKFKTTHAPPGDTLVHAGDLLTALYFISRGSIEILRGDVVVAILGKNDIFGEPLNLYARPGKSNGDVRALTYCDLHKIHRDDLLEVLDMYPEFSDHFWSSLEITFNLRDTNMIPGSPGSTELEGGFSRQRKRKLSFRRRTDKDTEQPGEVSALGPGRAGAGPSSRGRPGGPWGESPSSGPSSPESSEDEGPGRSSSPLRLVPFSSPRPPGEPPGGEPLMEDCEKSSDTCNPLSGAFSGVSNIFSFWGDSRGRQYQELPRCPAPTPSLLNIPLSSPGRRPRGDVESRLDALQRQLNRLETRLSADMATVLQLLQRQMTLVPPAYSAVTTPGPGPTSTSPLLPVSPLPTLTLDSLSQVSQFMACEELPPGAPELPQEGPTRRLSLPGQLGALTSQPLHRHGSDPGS
- Assay explanation: Inhibition of human ERG at 1 uM by patch-clamp method
Observation type: inhibition at 1 µM
Numeric answer plus unit only.

Smiles str: O=C(Nc1cccc(Br)c1)c1nc(Br)cs1
Measured on: hERG (KCNH2) (Homo sapiens)
inhibition at 1 µM: 29.3%

Now, please, on to the next molecule.
-- ask Entry Cc1cccc(NC(=O)c2nc(Br)cs2)n1 : reported inhibition at 1 µM = ?
-- reply 19.4%

###

- Measured on: CYP3A4 (Homo sapiens, UniProt P08684)
- Sequence (P08684 whole entry): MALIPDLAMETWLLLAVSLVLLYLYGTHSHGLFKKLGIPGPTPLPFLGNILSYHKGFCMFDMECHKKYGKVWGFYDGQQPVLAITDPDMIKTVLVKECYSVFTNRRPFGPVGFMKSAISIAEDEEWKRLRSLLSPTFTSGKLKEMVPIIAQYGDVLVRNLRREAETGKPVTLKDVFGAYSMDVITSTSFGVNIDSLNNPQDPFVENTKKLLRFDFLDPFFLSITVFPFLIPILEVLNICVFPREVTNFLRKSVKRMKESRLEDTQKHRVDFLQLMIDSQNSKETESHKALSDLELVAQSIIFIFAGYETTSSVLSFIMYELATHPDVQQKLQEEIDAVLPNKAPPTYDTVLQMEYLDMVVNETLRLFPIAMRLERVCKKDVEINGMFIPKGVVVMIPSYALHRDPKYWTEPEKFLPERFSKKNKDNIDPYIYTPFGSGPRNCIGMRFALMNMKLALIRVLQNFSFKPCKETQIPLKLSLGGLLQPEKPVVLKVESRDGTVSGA
- Assay explanation: Inhibition of human CYP3A4 assessed as remaining activity at 10 uM
- Assay type: ADME
- Condition label: read-out: Activity
Observation type: activity at 10 µM (%)
Write it as a number; the unit % goes unstated.

Smiles str: Cc1cccc(NC(=O)c2nc(Br)cs2)n1
Experimental value: 87.3

Now, please, on to the next compound.
-- ask Entry O=C(Nc1cccc(Br)c1)c1nc(Br)cs1 : reported activity at 10 µM = ?
-- reply 84.9

###

- Measured on: UniProtKB P41594
- Assay explanation: Antagonist activity at mGlu5 receptor (unknown origin) expressed in HEK cells assessed as inhibition of glutamate-induced calcium flux at 1 uM by fluorescence based assay
- Type: functional, cell-based
- Condition label: HEK293
- Sequence (P41594 21-1212 limits assumed): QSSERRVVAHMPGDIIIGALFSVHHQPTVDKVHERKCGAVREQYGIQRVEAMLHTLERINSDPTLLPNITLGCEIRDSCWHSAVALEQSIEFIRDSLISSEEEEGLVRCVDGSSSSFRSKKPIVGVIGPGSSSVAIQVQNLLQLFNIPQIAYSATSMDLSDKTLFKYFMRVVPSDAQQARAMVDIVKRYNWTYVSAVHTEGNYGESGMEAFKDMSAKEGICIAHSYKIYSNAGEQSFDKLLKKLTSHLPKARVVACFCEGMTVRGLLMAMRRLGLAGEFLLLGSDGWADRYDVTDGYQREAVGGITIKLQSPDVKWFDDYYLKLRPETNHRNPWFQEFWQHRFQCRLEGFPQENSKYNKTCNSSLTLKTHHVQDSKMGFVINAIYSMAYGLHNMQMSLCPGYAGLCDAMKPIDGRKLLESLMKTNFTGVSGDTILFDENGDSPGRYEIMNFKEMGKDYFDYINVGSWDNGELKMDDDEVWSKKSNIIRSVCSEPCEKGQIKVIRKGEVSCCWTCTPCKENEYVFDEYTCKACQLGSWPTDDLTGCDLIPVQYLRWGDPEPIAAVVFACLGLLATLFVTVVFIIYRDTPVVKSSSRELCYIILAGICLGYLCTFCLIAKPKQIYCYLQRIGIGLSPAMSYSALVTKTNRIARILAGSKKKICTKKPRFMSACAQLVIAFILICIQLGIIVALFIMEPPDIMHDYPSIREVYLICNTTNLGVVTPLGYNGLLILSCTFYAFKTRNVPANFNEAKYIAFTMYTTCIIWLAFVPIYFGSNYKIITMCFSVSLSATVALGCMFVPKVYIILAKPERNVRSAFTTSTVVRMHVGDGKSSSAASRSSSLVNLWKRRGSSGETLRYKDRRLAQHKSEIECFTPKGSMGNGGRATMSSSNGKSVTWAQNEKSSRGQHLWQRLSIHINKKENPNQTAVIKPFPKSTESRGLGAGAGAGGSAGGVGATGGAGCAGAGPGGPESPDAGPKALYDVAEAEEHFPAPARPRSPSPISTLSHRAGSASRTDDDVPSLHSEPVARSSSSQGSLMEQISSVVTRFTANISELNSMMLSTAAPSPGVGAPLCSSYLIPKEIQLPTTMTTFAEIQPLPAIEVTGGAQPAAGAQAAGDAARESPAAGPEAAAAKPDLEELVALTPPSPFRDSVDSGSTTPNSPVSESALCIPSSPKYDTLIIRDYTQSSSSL
Parameter inhibition: see the listing below.
Write it as a number; the unit % goes unstated.

Smiles str: N#Cc1cccc(NC(=O)c2cccc(F)n2)c1
Observation type: inhibition
Experimental value: 3.2

-- ask Entry O=C(Nc1ccccn1)c1ccccn1 : reported inhibition = ?
-- reply 34.5

-- ask Same thing, different compound: O=C(Nc1cc(Cl)cnc1Cl)c1ccccn1
-- reply 13.8

-- ask Same thing, different compound: O=C(Nc1ccc(Cl)cn1)c1ccccn1
-- reply 16.2

-- ask Same thing, different compound: N#Cc1csc(C(=O)Nc2cccc(Br)c2)n1
-- reply 19.5

-- ask Same thing, different compound: Cc1csc(C(=O)Nc2cccc(Br)c2)n1
-- reply 18

-- ask Same thing, different compound: Cc1csc(C(=O)Nc2cccc(Cl)n2)n1
-- reply 45

###

- Measured on: Metabotropic glutamate receptor 5 (Homo sapiens)
- Assay explanation: Antagonist activity at mGlu5 receptor (unknown origin) expressed in HEK cells assessed as inhibition of glutamate-induced calcium flux at 1 uM by fluorescence based assay
- Format: functional, cell-based
- Condition label: HEK293
Label yes when inhibition >= 20%; otherwise no.

Illustrative cases are given below, each with its answer.
Smiles str: COc1cccc(C(=O)Nc2cccnc2)n1
Group: yes
--
Smiles str: Cc1cccc(C(=O)Nc2cccc(C#N)c2)n1
Group: no
--
Smiles str: Cc1cccc(NC(=O)c2nc(C)cs2)n1
Group: yes
--
Smiles str: N#Cc1csc(C(=O)Nc2cccc(Cl)n2)n1
Group: no
--
Smiles str: N#Cc1csc(C(=O)Nc2cccc(F)n2)n1
Group: no

-- ask Textbook exercise: given the entry O=C(Nc1cccc(Cl)n1)c1nc(Br)cs1 , state whether its inhibition is greater than or equal to 20%.
-- reply yes

-- ask Same thing, different compound: N#Cc1cccc(NC(=O)c2nc(Br)cs2)c1
-- reply no

-- ask Same thing, different compound: N#Cc1cccc(NC(=O)c2nc(Br)cs2)n1
-- reply no

-- ask Same thing, different compound: O=C(Nc1cccc(Cl)c1)c1nc(Br)cs1
-- reply yes

-- ask Same thing, different compound: N#Cc1csc(C(=O)Nc2cccc(Cl)c2)n1
-- reply no

Where do these numbers come from? They come from ChEMBL document CHEMBL3739386.
